Reference source: patent US20220177583A1

Target: T1, human CLDN6, endogenously expressed on cancer cell lines (human, UniProt P56747 1-220)
T1 construct: also called Endogenous CLDN6+; CLDN6 on ARK2, OVCA429, UMUC4 cells
T1 sequence: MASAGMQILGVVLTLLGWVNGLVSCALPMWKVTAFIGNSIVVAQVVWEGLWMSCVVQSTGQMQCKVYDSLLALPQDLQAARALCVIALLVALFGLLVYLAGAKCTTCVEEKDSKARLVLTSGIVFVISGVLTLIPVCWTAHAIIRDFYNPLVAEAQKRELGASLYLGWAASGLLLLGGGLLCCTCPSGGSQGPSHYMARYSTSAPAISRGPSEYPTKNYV
Experiment: FACS dose curve, labelled mAb, OVCA429 cells

| Binder | EC50, µM |
| --- | --- |
| AB7 (antibody, V domains shown, Full-length IgG (ExpiCHO)) VH: EVQLQQSGPELVKPGASMKISCKASGYSFTGYTMNWVKQSHGKNLEWIGLINPYNGGTNYNQKFKGKATLTVDKSSSTAYMELLSLTSEDSAVYYCARGVYDYDGFTYWGQGTLVTVSA VL: QIVLTQSPAIMSASLGDRVTMTCTASSSVSSSYLHWYQQKPGSSPKLWIYSTSNLASGVPARFSGSGSGTSYSLTISSMEAEDAATYYCHQYHRSPPTFGSGTKLEIK | 0.531 |
| AB6 (antibody, V domains shown, Full-length IgG (ExpiCHO)) VH: DVQLQESGPGLVKSSQSLSLTCSVTGYSITSGYYWKWIRQFPGNKLEWMGYISYDGGINYNPSLKNRISITRDTSKNQFFLKLNSVTTEDTAKYYCARFGKGAMDYWGQGTSVTVSS VL: AIVMFQSPSSLVVSAGEKVTMSCKSSQSLLNSRTRKNYLAWYQQKPGQSPKLLIYWASTRESGVPDRFTGSGSGTDFTLTISSVQAEDLAVYYCKQSYYLYTFGGGTKLEIK | 0.394 |
| AB14 (antibody, V domains shown, Full-length IgG (ExpiCHO)) VH: QVQLQQSGPELVRPGVSVKISCKGSGYTFTDYAMHWVKQSHAKSLEWIGVISTYSGNTNYNQKFQDKATMTVDKSSSTAYMALARLTSDDSAIYYCARRGDYSLYAMDYWGQGTSVTVSS VL: DIVLTQSPASLAVSLGQRATISCKASQSVDYDGDNYVNWYQQKVGQPPKLLISAASNLESGIPARFSGSGSGTDFTLNIHPVEEEDAATYYCQQSNEDPFTFGSGTKLEIK | 1.66 |
